# Target entity: human orexin-2 receptor (Homo sapiens)
# Sequence (O43614 1-444): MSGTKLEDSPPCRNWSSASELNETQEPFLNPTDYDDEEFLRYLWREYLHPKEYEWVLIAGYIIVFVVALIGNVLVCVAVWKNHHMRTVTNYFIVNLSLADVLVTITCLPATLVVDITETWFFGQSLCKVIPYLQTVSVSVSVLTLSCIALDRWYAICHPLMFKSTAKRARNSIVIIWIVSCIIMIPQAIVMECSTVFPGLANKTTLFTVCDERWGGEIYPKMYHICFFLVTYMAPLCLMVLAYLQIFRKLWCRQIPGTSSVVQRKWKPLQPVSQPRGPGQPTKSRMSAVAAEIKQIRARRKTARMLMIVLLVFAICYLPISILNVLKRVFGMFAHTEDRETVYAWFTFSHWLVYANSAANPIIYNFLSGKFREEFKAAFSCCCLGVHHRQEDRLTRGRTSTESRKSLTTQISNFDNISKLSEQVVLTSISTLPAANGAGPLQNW
# Assay: FLIPR intracellular calcium assay, orexin receptor antagonistic activity (OX2)
# Measurement conditions: CHO cells expressing human orexin-2 receptor; 3 nM orexin-A; normalized to on-plate reference; *n = geometric mean from n values
Readout name: pIC50
Scale note: pIC50 = -log10(concentration in M).

Please review the entries below; each comes with its answer.
INSERT INTO results (compound, numeric_readout) VALUES
  ('COc1cccc(OC)c1C1SCC(=O)N1Cc1ccc(SC(F)(F)F)cc1 (stereo not shown) [Example 139]', 7.52),
  ('COc1cccc(OC)c1C1SCC(=O)N1Cc1ccc(Oc2cncnc2)cc1 (stereo not shown) [Example 276]', 6.92),
  ('CCOc1ccc(CN2C(=O)C(C)(C)SC2c2c(OC)cccc2OC)cc1 (stereo not shown) [Example 175]', 6.18),
  ('COc1ccc2cc(CN3C(=O)C(C)SC3c3c(OC)cccc3OC)ccc2c1 (stereo not shown) [Example 31]', 7.52),
  ('CCOc1ccccc1C1SCC(=O)N1Cc1ccc(F)c(F)c1 (stereo not shown) [Example 65]', 7.68),
  ('COc1cccc(OC)c1C1SCC(=O)N1Cc1cccc(OC(F)(F)F)c1 (stereo not shown) [Example 119]', 7.21),
  ('CCOc1ccccc1CN1C(=O)CSC1c1c(OC)cccc1OC (stereo not shown) [Example 101]', 7.29),
  ('COc1cccc(OC)c1C1SCC(=O)N1Cc1ccc(-c2ccccc2)cc1 (stereo not shown) [Example 203]', 6.90),
  ('COc1cc(F)cc(OC)c1C1SCC(=O)N1Cc1ccc(OC(F)(F)F)cc1 (stereo not shown) [Example 33]', 8.10),
  ('COc1cccc(OC)c1C1SCC(=O)N1Cc1ccc(OC(C)(C)C)cc1 (stereo not shown) [Example 3]', 6.92);

Ask | So what's the measured pIC50 for this one? CCOc1ccc(CN2C(=O)CSC2c2c(OC)cccc2OC)cc1 (stereo not shown) [Example 6]
Reply | 7.62

Ask | So what's the measured pIC50 for this one? COc1cccc(OC)c1C1SCC(=O)N1Cc1ccc(OC(F)(F)F)cc1 (stereo not shown) [Example 2]
Reply | 7.82

Ask | So what's the measured pIC50 for this one? COc1ccc2cccnc2c1C1SCC(=O)N1Cc1ccc(OC(F)(F)F)cc1 (stereo not shown) [Example 24]
Reply | 7.85
